Values were extracted from patent US9266930.

- target.desc: HLA-A*6802 (human)
- assay.comment: competition with 125I probe peptide for purified HLA, gel filtration
property.measured: IC50
Form field: result (number plus unit)

Provide measured IC50 value, entry: ILSVSSFLFV (modifications not checked) [1167.18] 2.1 µM
